# MEASUREMENT_DESCRIPTION: inhibitors of intracellular T. cruzi replication, confirmation, NIH3T3 host cells, beta-gal luminescence (AID 2044);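 further: intracellular parasites grown in NIH/3T3 mouse fibroblasts as host cells; luminescent beta-galactosidase reporter signal from transgenic T. cruzi replicating inside host cells; inhibitors lower the luminescence signal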
# Format: functional, cell-based
Active and inactive are the calls of the source.
Listing of entries alongside the reported EC50.

COMPOUND	EC50
Cc1nn(S(=O)(=O)c2ccc(Cl)cc2)c(C)c1Sc1ccc([N+](=O)[O-])cc1	1730 nM (active)

So, `CCOc1ccc(S(=O)(=O)NC(C)(C)C)cc1-c1nc(O)c2c(n1)c(C(C)(C)C)nn2C` ? Its EC50 was 1260 nM (active)

Entry `CN1CCc2nc(SCc3ccc(Cl)cc3)c(C#N)c(-c3cccs3)c2C1` ; EC50 = < 100 nM (active)

Item: `Cc1ccc2nc(Cl)c3cc(C(=O)NCCCN4CCCC4)sc3c2c1` | EC50: 1650 nM (active)

Query `COc1ccc(Cl)cc1Nc1nc(-c2cccnc2)cs1` yields EC50 of 3220 nM (active)

EC50 reported for this compound CCO/C(O)=C1\C(C)=Nc2sc(C(=O)c3ccc(Br)cc3)c(N)c2C1c1ccc(C(=O)OC)cc1 (centres undefined) : 1090 nM (active)

###

# MEASUREMENT_DESCRIPTION: P. falciparum Dd2 growth inhibitors, dose response, SYBR Green, cherry-picked samples (AID 1159567)
# Format: functional, cell-based
Active and inactive are the calls of the source.
Listed next: entries and their corresponding AC50.

CHEMICAL_STRING	RECORDED_RESULT
COc1cccc(CN(C)C[C@H]2OCc3ccccc3-c3c(n(C)c4ccccc34)C(=O)N([C@@H](C)CO)C[C@H]2C)c1	1.62 µM (active)

The recorded AC50 for entry `COc1cccc(C#Cc2cnc3c(c2)C(=O)N([C@@H](C)CO)C[C@H](C)[C@@H](CN(C)C(=O)C2CCCCC2)O3)c1` equals 0.889 µM (active)

Sample `N#Cc1cccc(-c2ccc3c(c2)[C@H]2[C@H](CCN2C(=O)c2ccncc2)[C@H](CO)N3)c1` ; AC50 observed: 7.86 µM (active)

Value of AC50 reported for the compound `O=C(Nc1ccccc1)N1CCCCN2[C@@H](CO)[C@@H](c3ccc(-c4ccccc4)cc3)[C@@H]2C1` is 4.43 µM (active)

###

# MEASUREMENT_DESCRIPTION: NIH-3T3 fibroblast cytotoxicity, dose response, cytotoxicity control, cell-based, fluorescence, Alamar Blue, secondary assay (AID 2327);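 further: NIH-3T3 mouse fibroblasts cultured with fluconazole at 8 µg/mL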
# Format: functional
The source made the active and inactive calls.
Listing of recorded EC50 by entry.

Worked cases, EC50 given:
CHEMICAL_STRING	EC50
O=C(NNc1ccc(Cl)cc1)c1sccc1Cl	3.77 µM (active)
CCOc1ccc(C(=O)Nc2ccc(Cc3ccncc3)cc2)cc1Br	> 150 µM (inactive)
C=CC[n+]1c(-c2ccc(C)cc2)csc1NNC(=O)Nc1ccccc1	> 150 µM (inconclusive)

Proceed to the following item.
Record `COc1cc(OC)cc(C(=O)NNC(=O)c2cc3ccccc3cc2O)c1` , field EC50: > 160 µM (inactive)

###

# MEASUREMENT_DESCRIPTION: Luminescence Cell-Based Dose Response HTS to Identify Inhibitors of 5'UTR Stem-Loop Driven Prion Protein mRNA Translation in H4 Neuroglioblastoma Cells. [Related pubchem assays: 1827 (Project Summary), 1813 (Primary HTS)]
# Assay type: functional
Activity calls are given as the source filed them.
READOUT_TYPE: EC50

MOLECULE	EC50
CN1CCc2c(sc3c2C(=O)NC(c2cn(Cc4ccccc4)c4ccccc24)N3)C1 (centres undefined)	8.12 µM (active)
Cc1c(NC(=O)CCC2CCCCC2)cc(C(=O)N2CCOCC2)cc1[N+](=O)[O-]	> 120 µM (not active)
COC(=O)Nc1nc(-c2ccccc2)c(C(=O)c2ccccc2)s1	< 0.1 µM (active)

Field: next molecule
Looking up `CCN(CC)c1ccc(/C=N/Nc2nc3ccccc3[nH]2)c(O)c1` , I found its EC50 recorded as 8.71 µM (active)
